Here the recorded Oxidation potential is given for each entry.
Assay: Oxidation potential, yardstick for easiness of tribological and electrolytic polymerization
Assay type: physicochemical
endpoint: Oxidation potential (V vs. Ag^+ /Ag)

compound: FC(F)(F)C(F)(F)C(F)(F)C(F)(F)C(F)(F)C(F)(F)C(F)(F)c1ccc(Nc2nc(S)nc(S)n2)cc1 [Comparative example, reference compound]
endpoint: Oxidation potential
unitName: V vs. Ag^+ /Ag
value: 0.90
--
compound: FC(F)(F)C(F)(F)C(F)(F)C(F)(F)C(F)(F)C(F)(F)C(F)(F)CNc1nc(S)nc(S)n1
endpoint: Oxidation potential
unitName: V vs. Ag^+ /Ag
value: 0.62
--
compound: FC(F)(F)C(F)(F)C(F)(F)C(F)(F)C(F)(F)C(F)(F)C(F)(F)CN(c1nc(S)nc(S)n1)C1CCCCC1
endpoint: Oxidation potential
unitName: V vs. Ag^+ /Ag
value: 0.78
--
compound: CCCCN(CC(F)(F)C(F)(F)C(F)(F)C(F)(F)C(F)(F)C(F)(F)C(F)(F)C(F)(F)C(F)(F)C(F)(F)F)c1nc(S)nc(S)n1
endpoint: Oxidation potential
unitName: V vs. Ag^+ /Ag
value: 0.56
--
compound: CCCCN(CC(F)(F)C(F)(F)C(F)(F)C(F)(F)C(F)(F)C(F)(F)C(F)(F)F)c1nc(S)nc(S)n1
endpoint: Oxidation potential
unitName: V vs. Ag^+ /Ag
value: 0.46

* * *

Experiment: Solubility of 6-perfluoro alkylamino-1,3,5-triazine-2,4-dithiol to various solvents
Type: physicochemical
Set-up: key: X: did not solved; Δ: slightly solved (1 wt % or less); .largecircle.: sufficiently solved (1-10 wt %); .circleincircle.: excellently solved (10 wt % or more)
Details: toluene
endpoint: Solubility, Toluene

compound: FC(F)(F)C(F)(F)C(F)(F)C(F)(F)C(F)(F)C(F)(F)C(F)(F)c1ccc(Nc2nc(S)nc(S)n2)cc1 [Comparative example, reference compound]
value: X

* * *

Test: Critical micelle concentration (surface activity)
Assay type: physicochemical

molecule: FC(F)(F)C(F)(F)C(F)(F)C(F)(F)C(F)(F)C(F)(F)C(F)(F)CN(c1nc(S)nc(S)n1)C1CCCCC1 [Example 13]
Critical micelle concentration: 5.6e-05 mol/L
--
molecule: CCCCN(CC(F)(F)C(F)(F)C(F)(F)C(F)(F)C(F)(F)C(F)(F)C(F)(F)F)c1nc(S)nc(S)n1 [Example 12]
Critical micelle concentration: 2.1e-05 mol/L
--
molecule: FC(F)(F)C(F)(F)C(F)(F)C(F)(F)C(F)(F)C(F)(F)C(F)(F)c1ccc(Nc2nc(S)nc(S)n2)cc1 [Comparative example, reference compound]
Critical micelle concentration: 0.022 mol/L
--
molecule: FC(F)(F)C(F)(F)C(F)(F)C(F)(F)C(F)(F)C(F)(F)C(F)(F)CNc1nc(S)nc(S)n1 [Example 11]
Critical micelle concentration: 0.0021 mol/L
--
molecule: CCCCN(CC(F)(F)C(F)(F)C(F)(F)C(F)(F)C(F)(F)C(F)(F)C(F)(F)C(F)(F)C(F)(F)C(F)(F)F)c1nc(S)nc(S)n1 [Example 14]
Critical micelle concentration: 1.1e-05 mol/L

* * *

Experiment: Dissociation constants (pKa1, pKa2), yardstick for reactivity
Assay type: physicochemical
Settings: dissociation constant
Reported pKa1 by item:

compound: FC(F)(F)C(F)(F)C(F)(F)C(F)(F)C(F)(F)C(F)(F)C(F)(F)CNc1nc(S)nc(S)n1
pKa1: 8.1

compound: CCCCN(CC(F)(F)C(F)(F)C(F)(F)C(F)(F)C(F)(F)C(F)(F)C(F)(F)C(F)(F)C(F)(F)C(F)(F)F)c1nc(S)nc(S)n1
pKa1: 7.5

compound: CCCCN(CC(F)(F)C(F)(F)C(F)(F)C(F)(F)C(F)(F)C(F)(F)C(F)(F)F)c1nc(S)nc(S)n1
pKa1: 7.4

compound: FC(F)(F)C(F)(F)C(F)(F)C(F)(F)C(F)(F)C(F)(F)C(F)(F)CN(c1nc(S)nc(S)n1)C1CCCCC1
pKa1: 6.2

compound: FC(F)(F)C(F)(F)C(F)(F)C(F)(F)C(F)(F)C(F)(F)C(F)(F)c1ccc(Nc2nc(S)nc(S)n2)cc1 [Comparative example, reference compound]
pKa1: 8.3

* * *

Each entry below lists one item and its recorded pKa2 value.
Experiment: Dissociation constants (pKa1, pKa2), yardstick for reactivity
Assay type: physicochemical
Settings: dissociation constant

compound: CCCCN(CC(F)(F)C(F)(F)C(F)(F)C(F)(F)C(F)(F)C(F)(F)C(F)(F)F)c1nc(S)nc(S)n1 [Example 12]
pKa2: 10.4
//
compound: CCCCN(CC(F)(F)C(F)(F)C(F)(F)C(F)(F)C(F)(F)C(F)(F)C(F)(F)C(F)(F)C(F)(F)C(F)(F)F)c1nc(S)nc(S)n1 [Example 14]
pKa2: 9.8
//
compound: FC(F)(F)C(F)(F)C(F)(F)C(F)(F)C(F)(F)C(F)(F)C(F)(F)CN(c1nc(S)nc(S)n1)C1CCCCC1 [Example 13]
pKa2: 10.6
//
compound: FC(F)(F)C(F)(F)C(F)(F)C(F)(F)C(F)(F)C(F)(F)C(F)(F)c1ccc(Nc2nc(S)nc(S)n2)cc1 [Comparative example, reference compound]
pKa2: 10.7
//
compound: FC(F)(F)C(F)(F)C(F)(F)C(F)(F)C(F)(F)C(F)(F)C(F)(F)CNc1nc(S)nc(S)n1 [Example 11]
pKa2: 10.3
